- Experimental system: T1, human AMHRII (anti-Mullerian hormone receptor type 2) (human, UniProt Q16671 18-573)
- T1 construct: whole, on cells; also called AMHR2; human AMHR2
- T1 sequence (looked up): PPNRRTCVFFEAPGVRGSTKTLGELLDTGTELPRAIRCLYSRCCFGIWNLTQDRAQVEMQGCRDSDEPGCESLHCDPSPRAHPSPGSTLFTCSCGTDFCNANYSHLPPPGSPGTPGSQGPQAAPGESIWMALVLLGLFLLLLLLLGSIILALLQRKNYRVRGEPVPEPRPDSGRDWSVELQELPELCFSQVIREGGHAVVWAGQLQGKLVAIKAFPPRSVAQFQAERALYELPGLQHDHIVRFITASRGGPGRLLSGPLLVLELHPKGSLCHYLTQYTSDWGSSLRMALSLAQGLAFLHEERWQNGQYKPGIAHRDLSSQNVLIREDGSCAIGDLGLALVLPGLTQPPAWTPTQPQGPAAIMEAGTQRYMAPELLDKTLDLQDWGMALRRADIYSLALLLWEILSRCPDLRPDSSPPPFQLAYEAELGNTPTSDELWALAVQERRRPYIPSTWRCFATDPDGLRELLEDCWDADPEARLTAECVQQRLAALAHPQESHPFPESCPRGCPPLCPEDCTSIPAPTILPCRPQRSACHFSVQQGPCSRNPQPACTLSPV
- Experiment notes: FACS on CHO-K1 cells over-expressing human AMHR2
Property name: Top (MFI)

31D9B3 H4L2 hIgG1 (antibody, V domains shown, Humanized, human IgG1; also called 31D9B3 H4L2 hlgG1) VH: QVQLVQSGAEVVKPGASVKMSCKASGYTFTDYWVSWVKQSPGQGLEWIGEIYPKNGVSNFNEKFKGKATLTVDKSTSTAYMELRRLRSDDTAVFYCTRQRDYWGQGVLVTVSS VL: DVVMTQSPLSLPVTLGQPASISCRSSQSLEYGDGYTYLEWYLQRPGQSPRLLIYGVSNRFSGVPDRFSGSGSGTDFTLKISRVEAEDVGVYYCFQATHDPNTFGQGTKLEIK
36200
31D9B3 H3L1 hIgG1 (antibody, V domains shown, Humanized, human IgG1; also called 31D9B3 H3L1 hlgG1) VH: QVQLVQSGAEVKVPGASVKMSCKASGYTFTDYWVSWVRQSPGQGLEWIGEIYPKNGVSNFNEKFKGRVTLTVDKSTSTAYMELRSLRSDDTAVYYCTRQRDYWGQGVLVTVSS VL: DVVMTQSPLSLPVTLGQPASISCRSSQSLEYGDGYTYLEWFQQRPGQSPRRLIYGVSNRFSGVPDRFSGSGSGTDFTLKISRVEAEDVGVYYCFQATHDPNTFGQGTKLEIK
19600
31D9B3 H4L4 hIgG1 (antibody, V domains shown, Humanized, human IgG1; also called 31D9B3 H4L4 hlgG1) VH: QVQLVQSGAEVVKPGASVKMSCKASGYTFTDYWVSWVKQSPGQGLEWIGEIYPKNGVSNFNEKFKGKATLTVDKSTSTAYMELRRLRSDDTAVFYCTRQRDYWGQGVLVTVSS VL: DVVLTQSPLSLPVTLGQPASISCRSSQSLEYGDGYTYLEWYLQRPGQSPQLLIYGVSNRFSGVPDRFIGSGSGTDFTLKISRVEPEDVGVYYCFQATHDPNTFGAGTKLEIK
37200
31D9B3 H3L3 hIgG1 (antibody, V domains shown, Humanized, human IgG1; also called 31D9B3 H3L3 hlgG1) VH: QVQLVQSGAEVKVPGASVKMSCKASGYTFTDYWVSWVRQSPGQGLEWIGEIYPKNGVSNFNEKFKGRVTLTVDKSTSTAYMELRSLRSDDTAVYYCTRQRDYWGQGVLVTVSS VL: DVVMTQSPLSLPVTLGQPASISCRSSQSLEYGDGYTYLEWYLQRPGQSPRLLIYGVSNRFSGVPDRFIGSGSGTDFTLKISRVEAEDVGVYYCFQATHDPNTFGAGTKLEIK
38000
xi31D9B3 hIgG1 (antibody, V domains shown, Murine variable domains in human chimeric format, human IgG1; also called xi31D9B3 hlgG1; 31D9B3 hlgG1) VH: QVKLLQSGAALVKPGASVKMSCKASGYTFTDYWVSWVKQSHGKSLEWIGEIYPKNGVSNFNEKFKGKATLTVDKSTSTAYMELRRLTSEDSAIFYCTRQRDYWGQGVMVTVSS VL: DVVLTQTPGSLSVTLGDQASISCRSSQSLEYGDGYTYLEWYLQKPGQSPQLLIYGVSNRFSGVPDRFIGSGSGTDFTLKISRVEPEDLGVYYCFQATHDPNTFGAGTKLELK
35200
31D9B3 H3L2 hIgG1 (antibody, V domains shown, Humanized, human IgG1; also called 31D9B3 H3L2 hlgG1) VH: QVQLVQSGAEVKVPGASVKMSCKASGYTFTDYWVSWVRQSPGQGLEWIGEIYPKNGVSNFNEKFKGRVTLTVDKSTSTAYMELRSLRSDDTAVYYCTRQRDYWGQGVLVTVSS VL: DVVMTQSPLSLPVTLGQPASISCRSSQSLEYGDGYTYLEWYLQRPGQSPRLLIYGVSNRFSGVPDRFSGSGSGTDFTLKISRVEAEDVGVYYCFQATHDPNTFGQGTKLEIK
37900
31D9B3 H4L1 hIgG1 (antibody, V domains shown, Humanized, human IgG1; also called 31D9B3 H4L1 hlgG1) VH: QVQLVQSGAEVVKPGASVKMSCKASGYTFTDYWVSWVKQSPGQGLEWIGEIYPKNGVSNFNEKFKGKATLTVDKSTSTAYMELRRLRSDDTAVFYCTRQRDYWGQGVLVTVSS VL: DVVMTQSPLSLPVTLGQPASISCRSSQSLEYGDGYTYLEWFQQRPGQSPRRLIYGVSNRFSGVPDRFSGSGSGTDFTLKISRVEAEDVGVYYCFQATHDPNTFGQGTKLEIK
16100
31D9B3 H4L3 hIgG1 (antibody, V domains shown, Humanized, human IgG1; also called 31D9B3 H4L3 hlgG1) VH: QVQLVQSGAEVVKPGASVKMSCKASGYTFTDYWVSWVKQSPGQGLEWIGEIYPKNGVSNFNEKFKGKATLTVDKSTSTAYMELRRLRSDDTAVFYCTRQRDYWGQGVLVTVSS VL: DVVMTQSPLSLPVTLGQPASISCRSSQSLEYGDGYTYLEWYLQRPGQSPRLLIYGVSNRFSGVPDRFIGSGSGTDFTLKISRVEAEDVGVYYCFQATHDPNTFGAGTKLEIK
36000
31D9B3 H3L4 hIgG1 (antibody, V domains shown, Humanized, human IgG1; also called 31D9B3 H3L4 hlgG1) VH: QVQLVQSGAEVKVPGASVKMSCKASGYTFTDYWVSWVRQSPGQGLEWIGEIYPKNGVSNFNEKFKGRVTLTVDKSTSTAYMELRSLRSDDTAVYYCTRQRDYWGQGVLVTVSS VL: DVVLTQSPLSLPVTLGQPASISCRSSQSLEYGDGYTYLEWYLQRPGQSPQLLIYGVSNRFSGVPDRFIGSGSGTDFTLKISRVEPEDVGVYYCFQATHDPNTFGAGTKLEIK
36400
